Source of measurements: ChEMBL document CHEMBL1124914

Reported IC50 values for a set of compounds
- Measurement Target: Renin (Sus scrofa)
- Assay Summary: Inhibitory activity against porcine renin
Measured Endpoint: IC50

# Compound, Measured Endpoint, Obs Value
rows = [
    ("CC(C)CCNC(=O)C(Cc1c[nH]c2ccccc12)NC(=O)[C@H](CCCCN)N1C(=O)CC[C@@H](NCC(C)(C)C)C(=O)N[C@H](Cc2ccccc2)C1=O (stereo in doubt)", "IC50", "7.1 µM"),
    ("CC(C)CCNC(=O)C(Cc1c[nH]c2ccccc12)NC(=O)[C@H](CCCCN)N1C(=O)CC[C@@H](NC(=O)OC(C)(C)C)C(=O)N[C@H](Cc2ccccc2)C1=O (stereo in doubt)", "IC50", "8.5 µM"),
    ("CC(C)CCNC(=O)C(Cc1c[nH]c2ccccc12)NC(=O)[C@H](CCCCN)N1C(=O)CC[C@@H](N)C(=O)N[C@H](Cc2ccccc2)C1=O (stereo in doubt)", "IC50", "46 µM"),
    ("CC(C)CCNC(=O)C(Cc1c[nH]c2ccccc12)NC(=O)[C@H](CCCCN)N1C(=O)CC[C@@H](NC(=O)COc2ccccc2)C(=O)N[C@H](Cc2ccccc2)C1=O (stereo in doubt)", "IC50", "8.2 µM"),
]
